Assay: amyloid nucleation score (Sup35N fusion, yeast selection) (log enrichment); library NNK3; higher = more nucleation; inactive = no reads after selection;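 also: zero at mode of non-aggregating sequences after 7 days selection at 30°C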
Observation Type: amyloid nucleation score

For orientation, consider the following solved cases.
IFVNWMVISVGLARFDVINA: -0.579
TVLCRYVAYLVVSANYLDEC: inactive
EFFCWIDSSIGSRYFSMTED: inactive
YLYCRAWIWLDNSMLSWS: inactive
YIASNAWETWRRDRSYRKRL: inactive
AAKYFCNCRGYFAPRLKC: inactive
SKSQSSHHDSYSLWTM: inactive
CLRDCKTPDSATHTRAINGL: inactive
QNCFHVY: inactive
IWFWKGICLRYTSRKGMNLR: 1.75

# map each substance to its amyloid nucleation score
1. TLFEMYNVTFIMKNGLQES
2. SYINHTIPRVLWAITLRYLI
3. DSYYFPRQGWMY
4. RDVVCRRMRTRVLSSHAPPR
5. WSFRNVVSVGMWYLCSDRIG
6. YCDNYYSLMSTTEEFPRVCV
7. NKSWWKYVPIDDGELYMRAV
8. LLEIPNSRDGFHRGSTVGDL

1.96
inactive
inactive
inactive
inactive
inactive
inactive
inactive

Provide each entry's amyloid nucleation score from the list below.
1. RLVWGCCLLDTCVVEQGSGV
2. NYYSGMRLSQNKKTST
3. FWFHLADMVECKCIDVLYYL
4. SLKGVITSFVRNVFFNRAMY
5. CWPSVMFKISADNSGWFGVD
6. WEGMNNKIRAYAYIATLVYT

1. 2.78
2. 0.701
3. inactive
4. inactive
5. inactive
6. inactive

# map each substance to its amyloid nucleation score
1. QWWITTYFGLIFLYVFYSID
2. VCREGLRDSRSAGGFFSYII

inactive
inactive

---

Assay: amyloid nucleation score (Sup35N fusion, yeast selection) (log enrichment); library NNK3; higher = more nucleation; inactive = no reads after selection
Observation Type: amyloid nucleation score

IIRAFDTYVCCKFGNCSVHM: 2.59
SYSGIYILSSFAATSSFILS: 0.46
IAMSRSACRYVFECYIYFFF: inactive
TSRTGRMEYISRELGQRVWM: inactive
LASNFVGASIPPRRACGCRA: inactive
ESCWHLAEVRVIYGHRSMRP: 0.854
LEPDNYTLGGTKSTTTFAHR: inactive
GRFRLMNLFQTDSRINLWVR: inactive

Now let's try a different one.
Using the record for "VFTPLCAYVVGYLYEVCGDD" , report its amyloid nucleation score. inactive

---

Assay: amyloid nucleation score (Sup35N fusion, yeast selection) (log enrichment); library NNK2; higher = more nucleation; inactive = no reads after selection
Note: every record was labeled by where its amyloid nucleation score sits among b0: < -0.2; b1: ≥ -0.2 and < 0.8; b2: ≥ 0.8

GDLRYQSPSLCFCFMSFGDQ: b2
SLQFPISVNTYGDESCNSTV: b0
NSVTNNIRSWIPHLDKGYGG: b0
TCSGLCYIHWACIIGKDNYM: b2
DDRCATSNIHLLLHPLCTYL: b1
DYLYCSAQFRHMRVQSPGNA: b2

Please indicate the class for "WRCSSISCDCDARLGRMRVS" based on its amyloid nucleation score. b1

Similarly, "LVESVTEEQE" ? b2

// same read-out, input: "LSFVVL" b0

Could you do the same for "FHISYDTSS" , please? b0

Same question for "GIIGYDVKNKHHLTVGLRFI" please. b0

Another: "MAVYTRVVTLCRGKPFS" b2

Cool, now "NSELLFLGVEWNRT" b1

Item: "FFIWLPYRSTTINRISPCWG" b0
